Hey, just so you know, these numbers are from PubChem BioAssay (NCI).

# System: NCI-H460 lung
# ASSAY_METHOD_TEXT: NCI-60 one-dose screen, 48 h (100 = growth as untreated, 0 = no growth, -100 = all killed)
# REPORTED_CONDITIONS: 10 µM unless noted
# Description: Growth inhibition of the NCI-H460 human Non-Small Cell Lung tumor cell line is measured as a screen for anti-cancer activity. Cells are grown in 96 well plates and exposed to the test compound for 48 hours. Compounds are tested at a single concentration, which is 10^-5 M for most compounds. The reported endpoint is percent growth (GI% or GIPRCNT), where numbers from 0 - 100% represent growth inhibition, and numbers from -100% - 0 represent cell death. […]
The panel holds about 83,000 compounds, 20% with a hit somewhere; the sample as a whole holds those more often.
ASSAY_ENDPOINT: growth (%)

[
  {
    "SMILES": "NC(N)=Nc1nc2ccccc2n2c1nc1ccccc12",
    "MEASURED_RESULT": 8.12
  },
  {
    "SMILES": "O=c1ccn2nc3ccccc3c2[nH]1",
    "MEASURED_RESULT": 109
  },
  {
    "SMILES": "O=C1OC(c2nc3ccccc3s2)=C/C1=C\\c1ccc(O)cc1",
    "MEASURED_RESULT": 101
  },
  {
    "SMILES": "Clc1cccc(Cl)c1/C=C/c1cc(/C=C/c2c(Cl)cccc2Cl)[nH]n1",
    "MEASURED_RESULT": 11.4
  }
]

* * *

# System: MDA-MB-435 melanoma
# ASSAY_METHOD_TEXT: NCI-60 one-dose screen, 48 h
# REPORTED_CONDITIONS: 10 µM unless noted
This is part of a sample that, as a whole, favours compounds with a hit. Of some 83,000 tested, about 20% had one in any assay. Active and inactive are the calls of the source. Rule for the calls: active = growth percent below 10; inactive = the rest.
Possible outcomes: active, inactive

[
  {
    "COMPOUND": "N=C1CCC(=N)c2c1c(O)c1ccccc1c2O",
    "TESTED_SYSTEM": "MDA-MB-435 melanoma",
    "QUALITATIVE_LABEL": "inactive"
  },
  {
    "COMPOUND": "CC1(C)CC(=O)CC2(C1)N=C(N)Nc1nc3ccccc3n12 (configuration not stated)",
    "TESTED_SYSTEM": "MDA-MB-435 melanoma",
    "QUALITATIVE_LABEL": "inactive"
  },
  {
    "COMPOUND": "O=C(CCCCCCN1CC(=O)N2[C@@H](c3ccccc3Cl)c3[nH]c4ccccc4c3C[C@H]2C1=O)NO",
    "TESTED_SYSTEM": "MDA-MB-435 melanoma",
    "QUALITATIVE_LABEL": "inactive"
  },
  {
    "COMPOUND": "O=C1/C(=C\\c2cccnc2)SC(=S)N1CCc1ccc(O)cc1",
    "TESTED_SYSTEM": "MDA-MB-435 melanoma",
    "QUALITATIVE_LABEL": "inactive"
  },
  {
    "COMPOUND": "NC(=O)c1ccc[n+]([C@@H]2O[C@H](COP(=O)([O-])OP(=O)(O)OC[C@H]3O[C@@H](n4cnc5c(N)ncnc54)[C@H](O)[C@@H]3O)[C@@H](O)[C@H]2O)c1",
    "TESTED_SYSTEM": "MDA-MB-435 melanoma",
    "QUALITATIVE_LABEL": "inactive"
  },
  {
    "COMPOUND": "COc1cc(C2CC(=O)Nc3c2c(C)nn3-c2nc3ccccc3[nH]2)cc2c1OCC(=O)N2 (configuration not stated)",
    "TESTED_SYSTEM": "MDA-MB-435 melanoma",
    "QUALITATIVE_LABEL": "inactive"
  },
  {
    "COMPOUND": "COc1ccc2occ(C3=C(c4c[nH]c5ccccc45)C(=O)N(O)C3=O)c2c1",
    "TESTED_SYSTEM": "MDA-MB-435 melanoma",
    "QUALITATIVE_LABEL": "inactive"
  },
  {
    "COMPOUND": "CCN(CC)CCN1C(=O)c2c(c(C)c3c(oc4cc(O)ccc43)c2C)C1=O",
    "TESTED_SYSTEM": "MDA-MB-435 melanoma",
    "QUALITATIVE_LABEL": "inactive"
  },
  {
    "COMPOUND": "Cc1c(C(=O)OC(=NC2CCCCC2)NC2CCCCC2)sc2c1c(=O)nc1c(C#N)n[nH]n12",
    "TESTED_SYSTEM": "MDA-MB-435 melanoma",
    "QUALITATIVE_LABEL": "inactive"
  },
  {
    "COMPOUND": "NNC(=O)c1nc(N)n(-c2ccc(S(N)(=O)=O)cc2)n1",
    "TESTED_SYSTEM": "MDA-MB-435 melanoma",
    "QUALITATIVE_LABEL": "inactive"
  },
  {
    "COMPOUND": "O=C(N/N=C/C=C/c1ccc([N+](=O)[O-])o1)c1cc2ccccc2cc1O",
    "TESTED_SYSTEM": "MDA-MB-435 melanoma",
    "QUALITATIVE_LABEL": "active"
  },
  {
    "COMPOUND": "Fc1c[c-]c(-c2ccccn2)c(F)c1.[CH3-].[Pt+2].c1ccc(P(C[PH+](c2ccccc2)c2ccccc2)c2ccccc2)cc1",
    "TESTED_SYSTEM": "MDA-MB-435 melanoma",
    "QUALITATIVE_LABEL": "active"
  }
]
